Test system: SN12C
Assay: NCI tumour cell line growth inhibition, 48 h
Calls of active or inactive are those of the source. Cut-off read from the data, not from the text of the source: active = GI50 up to about 1.1 µM and inactive = higher.
Labels: T for active, F for inactive

[[record]]
molecule = "Nc1c(Br)c(=O)[nH]c(=O)n1COCCO"
class_assignment = "F"

[[record]]
molecule = "CC1(C)C/C(=N/O)c2c(nc3ccc4ccccc4c3c2-c2ccc(Cl)cc2)C1"
class_assignment = "F"

[[record]]
molecule = "O=C(OC1C#CCSCC#C/C=C\\1)c1cnc2ccccc2n1 (stereo unspecified)"
class_assignment = "F"

[[record]]
molecule = "O=C1C2=C(C3=NCCc4c[nH]c1c43)c1c(cc(Br)c(O)c1Br)CCN2"
class_assignment = "F"

[[record]]
molecule = "O=C(O)CCNc1[nH]cnc2ncnc1-2"
class_assignment = "F"

[[record]]
molecule = "O=C(Nc1ccc([As](=O)(O)O)cc1)Nc1cccc(Cl)c1Cl"
class_assignment = "F"

[[record]]
molecule = "CCOC(=O)C(C(N)=O)C1=Nc2cc([N+](=O)[O-])ccc2N/C1=C\\C(=O)c1ccc(C)cc1 (stereo unspecified)"
class_assignment = "F"

[[record]]
molecule = "COc1cc([C@@H]2c3cc4c(c(O)c3C[C@H]3COC(=O)[C@@H]32)OCO4)cc(OC)c1O"
class_assignment = "T"

[[record]]
molecule = "O=c1cc(-c2ccccc2)nc(-n2[nH]c3c(c2=O)CCCC3)[nH]1"
class_assignment = "F"

[[record]]
molecule = "CN(N=O)C(=O)NC(CCCCNC(=O)OCc1ccccc1)C(=O)OCc1ccccc1 (stereo unspecified)"
class_assignment = "F"

[[record]]
molecule = "CC1CCCN(CC(O)CN2CCCc3ccccc32)C1 (stereo unspecified)"
class_assignment = "F"

[[record]]
molecule = "COC(=O)c1cc2c(n1S(=O)(=O)c1ccc(C)cc1)C(=O)C(=O)c1[nH]cc(C(=O)OCc3ccccc3)c1-2"
class_assignment = "T"

[[record]]
molecule = "CCC1(Br)C(=O)NC(=O)N(C2CC(O)C(CO)O2)C1N=[N+]=[N-] (stereo unspecified)"
class_assignment = "F"

[[record]]
molecule = "CC1OC(OC2C(O[C@H]3CC[C@@]4(C)C(=CC[C@H]5[C@@H]6C[C@@H]7O[C@]8(CC[C@H](C)CN8)[C@@H](C)[C@@H]7[C@@]6(C)CC[C@@H]54)C3)OC(CO)C(O)C2OC2OC(CO)C(O)C(O)C2O)C(O)C(O)C1O (stereo partly specified)"
class_assignment = "F"

[[record]]
molecule = "COC(=O)C1(C)CCCC2(C)C3CCC4CC3(C=C4CO)CCC12 (stereo unspecified)"
class_assignment = "F"

[[record]]
molecule = "COc1cc(S(=O)(=O)Nc2nc(-c3ccc(N)cc3)cs2)ccc1Cl"
class_assignment = "F"

[[record]]
molecule = "c1ccc2c(c1)SCCCSCCCS2"
class_assignment = "F"

[[record]]
molecule = "CC(=O)OCC1OC(n2ncc(=O)[nH]c2=O)C(OC(C)=O)C1OC(C)=O (stereo unspecified)"
class_assignment = "F"

[[record]]
molecule = "O=C(Nc1nccs1)NS(=O)(=O)n1cnc2ccccc21"
class_assignment = "F"

[[record]]
molecule = "O=[N+]([O-])c1ccc2c(/N=N/c3ccc4ccccc4c3O)c(O)cc(S(=O)(=O)O)c2c1"
class_assignment = "F"

[[record]]
molecule = "COc1cc(/C=C(\\C#N)C(N)=C(C#N)C#N)cc(O)c1O"
class_assignment = "F"

[[record]]
molecule = "Nc1nn2c(C(Br)Br)cc(C(Br)Br)nc2c1[N+](=O)[O-]"
class_assignment = "F"

[[record]]
molecule = "N=C(N)NCCCC(NC(=O)OCCCCCn1ccc(N)nc1=O)C(=O)O (stereo unspecified)"
class_assignment = "F"

[[record]]
molecule = "CCCN1C(=O)/C(=C(/O)C(=O)OCC)C(c2ccc(OC)c(OC)c2)C1=O (stereo unspecified)"
class_assignment = "F"

[[record]]
molecule = "CCCCN(C)/N=N/c1[nH]cnc1C(N)=O"
class_assignment = "F"

[[record]]
molecule = "NC(=O)c1cn(C2OC(CO)C(O)C2O)c2nc[n+]([O-])c(N)c12 (stereo unspecified)"
class_assignment = "T"

